Biological target: VEGF165 (Homo sapiens, UniProt P15692-4 P15692-4:27-191)
Sequence (P15692 other isoform, or with tags, fused parts or gaps): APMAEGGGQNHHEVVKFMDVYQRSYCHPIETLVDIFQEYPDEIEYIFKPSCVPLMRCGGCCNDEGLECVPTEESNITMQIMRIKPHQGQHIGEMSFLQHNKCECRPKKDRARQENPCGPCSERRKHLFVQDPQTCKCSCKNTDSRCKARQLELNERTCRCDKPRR
Experiment: filter; s.d. 36; 37 C; divalent cation independent
Details: tags: carrier-free, Sf 21 insect cell expressed, R & D Systems; chain copies: 2 (inferred)
pKd: −log10 of the molar value.
experimental.readout: pKd

> print(dat)
                                     binder  recorded.result
1  GCGGUAGGAAGAAUUGGAAGCGC (ssRNA, 2'-F pyrimidines, 2'-OMe purines except 2'-OH G4, A6) [t22-OMe]            10.17

Source: patent US20030114404
